// reported CYP-1A2 (Phenacetin) mean percentage CYP inhibition for each item listed
Tested target: CYP1A2 (Homo sapiens, UniProt P05177)
Sequence (P05177 whole entry): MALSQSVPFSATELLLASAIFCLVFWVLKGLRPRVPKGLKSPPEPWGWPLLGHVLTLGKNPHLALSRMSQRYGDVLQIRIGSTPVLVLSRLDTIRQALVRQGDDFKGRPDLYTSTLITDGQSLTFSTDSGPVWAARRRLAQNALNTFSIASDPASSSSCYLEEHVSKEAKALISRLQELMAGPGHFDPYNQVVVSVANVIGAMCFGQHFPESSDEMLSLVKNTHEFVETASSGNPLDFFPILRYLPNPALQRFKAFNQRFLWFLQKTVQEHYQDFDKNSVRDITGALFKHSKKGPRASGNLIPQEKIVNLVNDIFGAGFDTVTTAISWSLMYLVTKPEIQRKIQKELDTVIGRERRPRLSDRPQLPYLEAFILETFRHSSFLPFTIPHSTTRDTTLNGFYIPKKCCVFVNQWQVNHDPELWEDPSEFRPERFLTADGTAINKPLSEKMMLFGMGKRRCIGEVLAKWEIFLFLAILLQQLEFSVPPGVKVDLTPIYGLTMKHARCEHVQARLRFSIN
Protocol details: CYP450 panel inhibition in human liver microsomes, 1A2 (phenacetin)
Experimental parameters: human liver microsomes, 10 μM, substrate phenacetin
Give the quantity in %, number only.

Example results:
1) CNS(=O)(=O)Nc1nccc(Cc2c(CN(C)C)c3ccc(OC(=O)N(C)C)cc3oc2=O)c1F [Compound 124]    9.9
2) CNS(=O)(=O)Nc1cccc(Cc2c(CN3CCNCC3)c3cc(F)c(OC(=O)N(C)C)cc3oc2=O)c1F [Compound 134]    −0.9
3) CCS(=O)(=O)Nc1cccc(Cc2c(CN(C)C)c3ccc(OC(=O)N(C)C)cc3oc2=O)c1F [Compound 120]    −3.7

Give me measured CYP-1A2 (Phenacetin) mean percentage CYP inhibition, please, for this compound: CCCS(=O)(=O)Nc1cccc(Cc2c(CN3CCNCC3)c3cc(Cl)c(OC(=O)N(C)C)cc3oc2=O)c1F [Compound 167] 10.8

Tell me CYP-1A2 (Phenacetin) mean percentage CYP inhibition reported for CNS(=O)(=O)Nc1cccc(Cc2c(CN(C)C)c3ccc(OC(=O)N(C)C)cc3oc2=O)c1F [Compound 9] 2.8

Tell me CYP-1A2 (Phenacetin) mean percentage CYP inhibition reported for CNS(=O)(=O)Nc1cccc(Cc2c(CN(C)C)c3cc(F)c(OC(=O)N(C)C)cc3oc2=O)c1F [Compound 25] 7.9
